Target: human plasma kallikrein (Homo sapiens, UniProt P03952)
Sequence (P03952 391-638 limits assumed): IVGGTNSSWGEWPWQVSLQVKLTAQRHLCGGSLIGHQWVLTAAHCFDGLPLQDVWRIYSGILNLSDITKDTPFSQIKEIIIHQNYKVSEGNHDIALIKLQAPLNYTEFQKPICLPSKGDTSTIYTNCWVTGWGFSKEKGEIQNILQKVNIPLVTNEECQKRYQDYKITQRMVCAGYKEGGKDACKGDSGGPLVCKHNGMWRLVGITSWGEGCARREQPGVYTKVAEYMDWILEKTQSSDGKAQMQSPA
Sequence (P03952 20-390 partner limits assumed): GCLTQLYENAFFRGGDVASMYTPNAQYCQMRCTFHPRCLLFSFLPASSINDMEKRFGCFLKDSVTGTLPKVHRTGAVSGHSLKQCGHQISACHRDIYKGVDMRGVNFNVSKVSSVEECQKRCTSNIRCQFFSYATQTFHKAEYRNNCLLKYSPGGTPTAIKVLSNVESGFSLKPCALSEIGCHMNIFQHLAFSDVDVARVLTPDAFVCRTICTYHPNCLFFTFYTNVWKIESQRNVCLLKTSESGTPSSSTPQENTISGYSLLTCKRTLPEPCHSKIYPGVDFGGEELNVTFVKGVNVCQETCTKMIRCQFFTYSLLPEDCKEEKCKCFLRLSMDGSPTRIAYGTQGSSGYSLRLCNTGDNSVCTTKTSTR
Experiment: Kallikrein inhibition FLINT assay with quenched AMC peptide substrate Z-Gly-Pro-Arg-AMC (end point EP or kinetic KIN reads)
Format: biochemical
Conditions: kinetic reads at 5 min intervals over 30 min; read-out: Kallikrein (KIN) IC50
Criterion: IC50 strictly less than 30 nM. Met: Condition met. Not met: Condition not met.

Example cases with answers are listed next.
[[record]]
molecule = "COC(=O)Nc1ccc(-c2cnn(C(Cn3cc(F)cn3)c3ccc(-c4c(-n5cnnn5)ccc(Cl)c4F)c[n+]3[O-])c2)cc1 (stereo not drawn)"
class_label = "Condition met"

[[record]]
molecule = "[O-][n+]1cc(-c2c(-n3cnnn3)ccc(Cl)c2F)ccc1[C@@H](Cc1cn(C(F)F)nn1)n1cc(-c2ccnc(C(F)(F)F)c2)cn1"
class_label = "Condition met"

[[record]]
molecule = "Nc1nc(Cl)c(-c2cnn(C(CC3CC3)c3ccc(-c4c(-n5cnnn5)ccc(Cl)c4F)c[n+]3[O-])c2)s1 (stereo not drawn)"
class_label = "Condition met"

[[record]]
molecule = "O=C(O)c1ccc(-c2cnn(C(Cc3nccs3)c3ccc(-c4c(-n5cc(C(F)(F)F)nn5)ccc(Cl)c4F)c[n+]3[O-])c2)cc1F (stereo not drawn)"
class_label = "Condition met"

[[record]]
molecule = "COCC[C@H](c1ccc(-c2c(-n3cnnn3)ccc(Cl)c2F)c[n+]1[O-])n1cc(-c2nn(C(F)F)cc2Cl)cn1"
class_label = "Condition not met"


Incoming: Given the entry COC(=O)CC(c1ccc(-c2c(-n3cc(C(F)(F)F)nn3)ccc(Cl)c2F)c[n+]1[O-])n1cc(-c2ccc(C(=O)O)c(F)c2)cn1 (stereo not drawn) , would its reported IC50 be below 30 nM?
Outgoing: Condition not met

Incoming: Given the entry [O-][n+]1cc(-c2c(-n3cnnn3)ccc(Cl)c2F)ccc1C(C(O)c1ccccc1)n1cc(-c2ccnn2C(F)F)cn1 (single isomer, unassigned) [Example P716] , would its reported IC50 be below 30 nM?
Outgoing: Condition met

Incoming: Given the entry Cn1cc2cc(-c3cnn(C(CC4CC4)c4ccc(-c5c(-n6cnnn6)ccc(Cl)c5F)c[n+]4[O-])c3)ccc2n1 (stereo not drawn) , would its reported IC50 be below 30 nM?
Outgoing: Condition not met

Incoming: Given the entry NC(=O)c1ccc(-c2cnn(C(CCOC(F)F)c3ccc(-c4c(-n5cc(Cl)nn5)ccc(Cl)c4F)c[n+]3[O-])c2)cc1 (single isomer, unassigned) [Example P895] , would its reported IC50 be below 30 nM?
Outgoing: Condition not met

Incoming: Given the entry CC(C)C(=O)N(C)CC(c1ccc(-c2c(-n3cnnn3)ccc(Cl)c2F)c[n+]1[O-])n1cc(-c2ccnc(F)c2)cn1 (stereo not drawn) , would its reported IC50 be below 30 nM?
Outgoing: Condition not met
